# TEST SUMMARY: relative lipophylia (RM) by reverse phase thin layer chromatography
# Type: physicochemical
# TEST PARAMETERS: rp-tlc, acetone/water 2:1
Each entry below carries its recorded chromatographic logP.
RECORDED ENDPOINT: chromatographic logP

* Clc1cccc(Cl)c1C1SCc2nc3ccccc3n21 (racemic) [XXVI] | -0.402
* Clc1ccccc1C1SCc2nc3ccccc3n21 (stereo not shown) [VII] | -0.393
* Cc1cccc(C2SCc3nc4ccccc4n32)c1 (stereo not shown) [XI] | -0.399
* Brc1cccc(C2SCc3nc4ccccc4n32)c1 (stereo not shown) [II] | -0.406
